From: ChEMBL document CHEMBL3301361

A collection of compounds and their measured hepatocyte CLint
- assay summary: in vitro
- conditions: hepatocytes
assay readout: hepatocyte CLint (µL/min/1e6 cells)

compound="Cc1c(C(=O)NC2C3CC4CC(C3)CC2C4)cnn1-c1ccc(C(=O)O)cc1 (stereo not given)" result_units="µL/min/1e6 cells" value_operator=< observed_result=3
compound="O=C(O)c1cc2ccccc2[nH]1 [INDOLE-2-CARBOXYLIC ACID]" result_units="µL/min/1e6 cells" value_operator== observed_result=11
compound=O=c1[nH]c2c(O)ccc([C@@H](O)CNCCSCCCNCCc3ccccc3)c2s1 result_units="µL/min/1e6 cells" value_operator== observed_result=9
compound=C[C@H]1C[C@@H](NS(=O)(=O)c2cc(Br)ccc2Br)CN1C#N result_units="µL/min/1e6 cells" value_operator== observed_result=39
compound=Cc1cc(F)ccc1-n1nc(C(F)(F)F)cc1-c1ccc2c(c1)NC(=O)CO2 result_units="µL/min/1e6 cells" value_operator== observed_result=28.2
